- assay-method-text: Log D7.4 measurement by chromatographic (fast-gradient HPLC) method
- test-settings: pH 7.4
parameter: chromatographic logD
Answers are plain numbers.

// known answers, use as guide
compound: CN[C@@H](C)C(=O)N[C@H](C(=O)N1CCC[C@H]1c1nc(C(=O)c2ccc(F)cc2)cs1)C1CCCCC1 [LCL161, reference compound]
chromatographic logD: 3.3
--
compound: CN[C@@H](C)C(=O)N[C@H](C(=O)N1C[C@@H](Oc2cccc(OCCCCOCCCCOc3cc(-c4scnc4C)ccc3CNC(=O)[C@@H]3C[C@@H](O)CN3C(=O)[C@H](C(C)C)N3Cc4ccccc4C3=O)c2)C[C@H]1C(=O)N[C@@H]1CCCc2ccccc21)C1CCCCC1
chromatographic logD: 4.2
--
compound: CN[C@@H](C)C(=O)N[C@H](C(=O)N1C[C@@H](Oc2cccc(OCCCCCNc3cccc4c3C(=O)N(C3CCC(=O)NC3=O)C4=O)c2)C[C@H]1C(=O)N[C@@H]1CCCc2ccccc21)C1CCCCC1 (stereo partly shown)
chromatographic logD: 4.6
--
compound: CN[C@@H](C)C(=O)N[C@H](C(=O)N1C[C@@H](Oc2cccc(OCCOCCOCCOCCNc3cccc4c3C(=O)N(C3CCC(=O)NC3=O)C4=O)c2)C[C@H]1C(=O)N[C@@H]1CCCc2ccccc21)C1CCCCC1 (stereo partly shown)
chromatographic logD: 3.9
--
compound: CN[C@@H](C)C(=O)N[C@H](C(=O)N1C[C@@H](Oc2cccc(OCCOCCOCCOc3cc(-c4scnc4C)ccc3CNC(=O)[C@@H]3C[C@@H](O)CN3C(=O)[C@H](C(C)C)N3Cc4ccccc4C3=O)c2)C[C@H]1C(=O)N[C@@H]1CCCc2ccccc21)C1CCCCC1
chromatographic logD: 3.4

# map each compound to its chromatographic logD
1. CN[C@@H](C)C(=O)N[C@H](C(=O)N1C[C@@H](Oc2cccc(OCCOCCCCCCOCCCCCCNc3cccc4c3C(=O)N(C3CCC(=O)NC3=O)C4=O)c2)C[C@H]1C(=O)N[C@@H]1CCCc2ccccc21)C1CCCCC1 (stereo partly shown)
2. CN[C@@H](C)C(=O)N[C@H](C(=O)N1C[C@@H](Oc2cccc(OCCOCCOCCOCCOc3cc(-c4scnc4C)ccc3CNC(=O)[C@@H]3C[C@@H](O)CN3C(=O)[C@H](C(C)C)N3Cc4ccccc4C3=O)c2)C[C@H]1C(=O)N[C@@H]1CCCc2ccccc21)C1CCCCC1
3. CN[C@@H](C)C(=O)N[C@H](C(=O)N1C[C@@H](Oc2cccc(OCCCCCCOCCCCCCOCCOc3cc(-c4scnc4C)ccc3CNC(=O)[C@@H]3C[C@@H](O)CN3C(=O)[C@H](C(C)C)N3Cc4ccccc4C3=O)c2)C[C@H]1C(=O)N[C@@H]1CCCc2ccccc21)C1CCCCC1
4. CN[C@@H](C)C(=O)N[C@@H](C(=O)N1CCC[C@H]1C(=O)N[C@@H]1c2ccccc2C[C@@H]1OCC#CC#CCO[C@H]1Cc2ccccc2[C@H]1NC(=O)[C@@H]1CCCN1C(=O)[C@H](NC(=O)[C@H](C)NC)C1CCCCC1)C1CCCCC1 [AZD5582, reference compound]
5. CN[C@@H](C)C(=O)N[C@H](C(=O)N1C[C@@H](Oc2cccc(OCCCCCOc3cc(-c4scnc4C)ccc3CNC(=O)[C@@H]3C[C@@H](O)CN3C(=O)[C@H](C(C)C)N3Cc4ccccc4C3=O)c2)C[C@H]1C(=O)N[C@@H]1CCCc2ccccc21)C1CCCCC1

[6, 3.3, 5.2, 4.1, 4]
